test system: velvetleaf (Abutilon theophrasti); experiment: Test A preemergence, velvetleaf; type: in vivo; conditions: 500 g ai/ha, 0 to 100 scale (0 no effect, 100 complete control)
MEASURE_NAME: Plant response rating, Velvetleaf
Please state the value as a number alone, without comment.

CC1(C)CC([S+]([O-])Cc2c(C(F)(F)Cl)nc3n(c2=O)CCCC3)=NO1 (stereo not shown) [Compound 32] tested on velvetleaf (Abutilon theophrasti) gave Plant response rating, Velvetleaf: 0

Cc1con2c(=O)c(CS(=O)(=O)C3=NOC(C)(C)C3)c(C(F)(F)F)nc12 [Compound 56] tested on velvetleaf (Abutilon theophrasti) gave Plant response rating, Velvetleaf: 0

CC1(C)CC([S+]([O-])Cc2c(C(F)(F)F)nc3cccnn3c2=O)=NO1 (stereo not shown) [Compound 46] tested on velvetleaf (Abutilon theophrasti) gave Plant response rating, Velvetleaf: 20

CC1(C)CC(S(=O)(=O)Cc2c(C(F)(F)F)nc3n(c2=O)CCC3)=NO1 [Compound 11] tested on velvetleaf (Abutilon theophrasti) gave Plant response rating, Velvetleaf: 60
